- assay.text: Plasma protein binding (equilibrium dialysis), dog
- Format: in vitro ADME
- condition.label: equilibrium dialysis, read-out: PPB (%), dog (converted)
measured.property: fraction unbound at 4 h, 5 µM
Hey, just send me the number, nothing else.

Prompt line: Provide fraction unbound at 4 h, 5 µM value for the following compound: CC(C)Cc1cc(F)c(-c2nn[nH]n2)c(N2CCN(Cc3cccnn3)[C@@H](C)C2)c1
Response line: 0.062

Now examine the next entry.
Prompt line: Provide fraction unbound at 4 h, 5 µM value for the following compound: CC(C)Cc1cc(F)c(-c2nn[nH]n2)c(N2CCN(Cc3ccccn3)[C@@H](C)C2)c1
Response line: 0.042

* * *

- assay.text: Caco-2 permeability assay
- Type: in vitro ADME
- condition.label: human, Caco-2, pH 7.4
- Procedure: Caco-2 cells were cultured in 75 cm^2 flasks to 80-90% confluence according to the ATCC and Millipore recommendations (Arena A. et al., 2003) in humidified atmosphere at 37° C. and 5% CO2. […] Supernatants were analyzed using the HPLC system coupled with tandem mass spectrometer. The apparent permeability (Papp) was calculated for Caco-2 permeability assay using the following equation: […]
Is recovery at 90 min, 10 µM at least 90%? Then 1. If not, -1.

Look over these answered cases.
Prompt line: Is the recorded value of recovery at 90 min, 10 µM equal to or greater than 90% for this compound? CCC1CN(c2cc(CC(C)C)cc(F)c2-c2nn[nH]n2)CCN1Cc1cccnn1 (centres unmarked)
Response line: 1

Prompt line: Is the recorded value of recovery at 90 min, 10 µM equal to or greater than 90% for this compound? CCc1cc(CC(C)C)cc(N2CCN(Cc3cccnn3)CC2)c1-c1nn[nH]n1
Response line: 1

Now turn to the next compound.
Prompt line: Is the recorded value of recovery at 90 min, 10 µM equal to or greater than 90% for this compound? CC(C)Cc1ccc(-c2nn[nH]n2)c(N2CCN(Cc3nc4ccccc4c(=O)[nH]3)CC2)c1
Response line: -1

* * *

- measurement.target: CYP1A2 (Homo sapiens (Human))
- Sequence (P05177 whole entry): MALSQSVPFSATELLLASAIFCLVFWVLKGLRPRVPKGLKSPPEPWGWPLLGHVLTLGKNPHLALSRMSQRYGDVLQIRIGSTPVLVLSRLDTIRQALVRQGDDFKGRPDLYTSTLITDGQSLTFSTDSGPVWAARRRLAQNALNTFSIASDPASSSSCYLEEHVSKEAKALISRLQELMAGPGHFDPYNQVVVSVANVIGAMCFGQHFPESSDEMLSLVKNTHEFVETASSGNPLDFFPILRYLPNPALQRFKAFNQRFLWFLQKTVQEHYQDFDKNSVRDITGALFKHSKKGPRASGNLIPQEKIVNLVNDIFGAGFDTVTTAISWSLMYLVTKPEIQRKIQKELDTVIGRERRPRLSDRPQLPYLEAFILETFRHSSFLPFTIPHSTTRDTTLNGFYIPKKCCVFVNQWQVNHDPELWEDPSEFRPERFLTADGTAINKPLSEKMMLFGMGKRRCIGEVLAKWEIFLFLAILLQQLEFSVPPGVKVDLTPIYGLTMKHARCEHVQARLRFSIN
- assay.text: in vitro
measured.property: inhibition at 10 µM (%)
Record the value in %, omitting the unit from your answer.

Prompt line: Provide inhibition at 10 µM value for the following molecule: Cc1cc(CN2CCN(c3cc(CC(C)C)ccc3-c3nn[nH]n3)CC2)no1 [Compound A-82]
Response line: 9.89

Prompt line: Provide inhibition at 10 µM value for the following molecule: CC(C)Cc1ccc(-c2nn[nH]n2)c(N2CCN(Cc3ccnn3C)CC2)c1 [Compound A-84]
Response line: 5.6

Prompt line: Provide inhibition at 10 µM value for the following molecule: CC(C)Cc1cc(F)c(-c2nn[nH]n2)c(N2CCN(Cc3ccccn3)[C@@H](C)C2)c1 [Compound A-217]
Response line: 16

---
Prompt line: Provide inhibition at 10 µM value for the following molecule: CC(C)Cc1ccc(-c2nn[nH]n2)c(N2CCN(Cc3nccn3C)CC2)c1 [Compound A-83]
Response line: 2.61

* * *

- measurement.target: human AT2R fused to Cb23 (Homo sapiens, UniProt P50052)
- Sequence (P50052 whole entry, looked up, the tested form may be a part): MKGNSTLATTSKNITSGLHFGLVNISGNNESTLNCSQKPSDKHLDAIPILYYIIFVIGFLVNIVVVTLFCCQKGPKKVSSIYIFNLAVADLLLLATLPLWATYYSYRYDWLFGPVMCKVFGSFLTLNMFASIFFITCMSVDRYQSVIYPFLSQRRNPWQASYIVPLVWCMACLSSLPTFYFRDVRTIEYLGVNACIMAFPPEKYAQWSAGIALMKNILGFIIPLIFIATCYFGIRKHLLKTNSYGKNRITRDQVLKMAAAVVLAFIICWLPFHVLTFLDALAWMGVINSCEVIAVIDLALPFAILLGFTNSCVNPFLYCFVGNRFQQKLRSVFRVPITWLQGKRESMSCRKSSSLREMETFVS
- assay.text: Radioligand binding assay, displacement of 125I-[Sar1, Ile8]-Angiotensin II, hAT2R Cb23
- condition.label: displacement of 125I-[Sar1, Ile8]-Angiotensin II, human AT2R fused to Cb23, HEK-293 cell membrane preparations; read-out: Binding affinity on hAT2R_Cb23 IC50
Measured IC50 accompanies every entry in the list below.
Record the value in µM, omitting the unit from your answer.

Prompt line: Provide IC50 value for the following compound: Cc1cnc(CN2CCN(c3cc(CC(C)C)cc(F)c3-c3nn[nH]n3)CC2)c(C)c1
Response line: 0.203

Prompt line: Provide IC50 value for the following compound: Cc1nc(CN2CCN(c3cc(CC(C)C)ccc3-c3nn[nH]n3)CC2)no1
Response line: 24.9

Prompt line: Provide IC50 value for the following compound: c1ccc2sc(CN3CCN(c4cc(N5CCCCC5)ccc4-c4nn[nH]n4)CC3)nc2c1
Response line: 1.85

Now examine the next entry.
Prompt line: Provide IC50 value for the following compound: Cc1nc(=O)cc(CN2CCN(c3cc(CC(C)C)ccc3-c3nn[nH]n3)CC2)[nH]1
Response line: 43.3

* * *

- measurement.target: CYP2C9 (Homo sapiens (Human))
- Sequence (P11712 whole entry): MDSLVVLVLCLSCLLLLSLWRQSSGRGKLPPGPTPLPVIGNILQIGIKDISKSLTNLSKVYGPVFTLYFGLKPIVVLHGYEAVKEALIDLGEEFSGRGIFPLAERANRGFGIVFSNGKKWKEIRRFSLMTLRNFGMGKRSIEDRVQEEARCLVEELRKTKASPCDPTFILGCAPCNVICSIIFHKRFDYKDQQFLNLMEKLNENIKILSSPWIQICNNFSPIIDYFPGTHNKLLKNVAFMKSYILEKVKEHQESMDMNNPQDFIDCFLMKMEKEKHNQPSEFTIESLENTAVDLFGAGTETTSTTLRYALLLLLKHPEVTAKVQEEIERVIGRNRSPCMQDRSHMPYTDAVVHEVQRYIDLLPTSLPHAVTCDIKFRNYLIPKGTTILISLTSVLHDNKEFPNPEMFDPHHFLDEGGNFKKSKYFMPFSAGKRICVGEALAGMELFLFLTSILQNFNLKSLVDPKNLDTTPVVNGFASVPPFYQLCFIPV
- assay.text: CYP inhibition, CYP2C9
- Type: in vitro ADME
- condition.label: test compound at 10 μM, read-out: % Inhibition (PIN) 2C9
Measured inhibition at 10 µM accompanies every entry in the list below.
Record the value in %, omitting the unit from your answer.

Prompt line: Provide inhibition at 10 µM value for the following compound: CC(C)Cc1ccc(-c2nn[nH]n2)c(N2CCN(Cc3nccn3C)CC2)c1
Response line: 3.37

Prompt line: Provide inhibition at 10 µM value for the following compound: CC(C)Cc1ccc(-c2nn[nH]n2)c(N2CCN(Cc3ccnn3C)CC2)c1
Response line: 56.2

Prompt line: Provide inhibition at 10 µM value for the following compound: CC(C)Cc1cc(F)c(-c2nn[nH]n2)c(N2CCN(Cc3ccccn3)[C@@H](C)C2)c1
Response line: 51

---
Prompt line: Provide inhibition at 10 µM value for the following compound: CC(C)Cc1ccc(-c2nn[nH]n2)c(N2CCN(Cc3ncccn3)CC2)c1
Response line: 15.8

* * *

- measurement.target: human AT1R (Homo sapiens (Human), UniProt P30556)
- Sequence (P30556 whole entry): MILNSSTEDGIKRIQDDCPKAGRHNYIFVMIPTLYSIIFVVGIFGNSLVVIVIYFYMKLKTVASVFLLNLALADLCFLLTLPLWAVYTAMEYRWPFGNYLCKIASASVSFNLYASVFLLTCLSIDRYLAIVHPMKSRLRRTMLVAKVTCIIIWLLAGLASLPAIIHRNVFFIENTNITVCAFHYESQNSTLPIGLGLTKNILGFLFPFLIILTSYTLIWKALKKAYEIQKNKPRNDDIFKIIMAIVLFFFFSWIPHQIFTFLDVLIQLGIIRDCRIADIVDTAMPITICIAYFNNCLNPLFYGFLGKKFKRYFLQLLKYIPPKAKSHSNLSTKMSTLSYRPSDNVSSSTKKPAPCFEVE
- assay.text: Counterscreen radioligand binding assay, displacement of 125I-[Sar1, Ile8]-Angiotensin II, hAT1R WT
- condition.label: 125I-[Sar1, Ile8]-Ang II, compound at 10 μM, semi-quantitative score, read-out: % Displaced radioligand at 10 μM
measured.property: inhibition at 10 µM

Examples from the recorded data:
Prompt line: Provide inhibition at 10 µM value for the following molecule: c1ccc(N2CCC(Cc3nc4ccccc4s3)CC2)c(-c2nn[nH]n2)c1 [Compound A-06]
Response line: 30 to 50%

Prompt line: Provide inhibition at 10 µM value for the following molecule: CC(C)Oc1cc(N2CCN(Cc3cccnn3)CC2)c(-c2nn[nH]n2)cc1C1CC1 [Compound A-160]
Response line: < 30%

Prompt line: Provide inhibition at 10 µM value for the following molecule: CC(C)Cc1ccc(-c2nn[nH]n2)c(C2CCN(Cc3cccnn3)CC2)c1 [Compound A-234]
Response line: < 30%

Prompt line: Provide inhibition at 10 µM value for the following molecule: CC(C)Cc1cc(F)c(-c2nn[nH]n2)c(N2CCCN(Cc3cccnn3)CC2)c1 [Compound A-231]
Response line: 30 to 50%

Prompt line: Provide inhibition at 10 µM value for the following molecule: CCCN(C(=O)c1cccs1)c1ccc2nc(CC)n(CC3CCN(c4ccccc4-c4nn[nH]n4)CC3)c(=O)c2c1 [Compound A-243]
Response line: > 50%

---
Prompt line: Provide inhibition at 10 µM value for the following molecule: c1ccc2sc(CN3CCN(c4cc(NCC5CC5)ccc4-c4nn[nH]n4)CC3)nc2c1 [Compound A-62]
Response line: < 30%

Prompt line: Provide inhibition at 10 µM value for the following molecule: Cc1cnc(CN2CCN(c3cc(CC(C)C)cnc3-c3nn[nH]n3)CC2)s1 [Compound A-221]
Response line: < 30%

Prompt line: Provide inhibition at 10 µM value for the following molecule: CC(C)Cc1cc(F)c(-c2nn[nH]n2)c(N2CCN(Cc3ccc(F)cn3)CC2)c1 [Compound A-195]
Response line: < 30%

* * *

Measured solubility at 2 h accompanies every entry in the list below.
- assay.text: Kinetic solubility
- Assay type: physicochemical
- condition.label: aqueous buffer, kinetic from dmso stock; kinetic solubility, phosphate-buffered saline pH 7.4, 2% DMSO, 25° C., two hours; read-out: PBS solubility, pH 7.4

Examples from the recorded data:
Prompt line: Provide solubility at 2 h value for the following compound: CCC1CN(c2cc(CC(C)C)cc(F)c2-c2nn[nH]n2)CCN1Cc1cccnn1 (centres unmarked)
Response line: ≥ 400 µM

Prompt line: Provide solubility at 2 h value for the following compound: CC(C)Oc1ccc(-c2nn[nH]n2)c(N2CCN(Cc3nc4ccccc4s3)CC2)c1
Response line: ≥ 400 µM

Prompt line: Provide solubility at 2 h value for the following compound: CC(C)Oc1ccc(-c2nn[nH]n2)c(N2CCN(Cc3nc4ccccc4n3C)CC2)c1
Response line: ≥ 400 µM

Prompt line: Provide solubility at 2 h value for the following compound: CC(C)Cc1cc(F)c(-c2nn[nH]n2)c(N2CC(C)N(Cc3cccnn3)CC2C)c1 (centres unmarked)
Response line: 383 µM

Prompt line: Provide solubility at 2 h value for the following compound: CC(C)Cc1ccc(-c2nn[nH]n2)c(N2CCN(Cc3cccnn3)CC2)c1
Response line: ≥ 400 µM

Prompt line: Provide solubility at 2 h value for the following compound: CC(C)Oc1ccc(-c2nn[nH]n2)c(N2CCN(Cc3nc4ccccc4c(=O)[nH]3)CC2)c1
Response line: 394 µM

---
Prompt line: Provide solubility at 2 h value for the following compound: CC(C)Cc1cc(F)c(-c2nn[nH]n2)c(N2CCN(Cc3cccnn3)[C@@H](C)C2)c1
Response line: 385 µM

Prompt line: Provide solubility at 2 h value for the following compound: CC(C)Cc1ccc(-c2nn[nH]n2)c(N2CCN(Cc3nc4ccccc4n3C)CC2)c1
Response line: ≥ 400 µM
